biological target: pancreatic lipase (PL) (Sus scrofa, UniProt P00591); construct: lipase (porcine pancreas); purchased Shanghai Yuanye Co., Ltd., Shanghai, China; host or cells: porcine pancreas; assay: Fluorescence quenching and binding interaction with PL (Stern-Volmer, double logarithmic, Van't Hoff); design: species or system porcine; details: T 310 K
property: n (number of binding sites)
API note: the answer field is a bare number with no unit suffix.

Observe how each entry below is paired with its result.
Nc1ccc(-c2c3nc(c(-c4ccc(N)cc4)c4ccc([nH]4)c(-c4ccc(N)cc4)c4nc(c(-c5ccc(N)cc5)c5ccc2[nH]5)C=C4)C=C3)cc1 ... 0.96
O=C(O)c1ccc(-c2c3nc(c(-c4ccc(C(=O)O)cc4)c4ccc([nH]4)c(-c4ccc(C(=O)O)cc4)c4nc(c(-c5ccc(C(=O)O)cc5)c5ccc2[nH]5)C=C4)C=C3)cc1 ... 1.16
O=C([O-])c1ccc(C2=C3C=CC(=N3)C(c3ccc(C(=O)[O-])cc3)=C3C=CC(=N3)C(=c3ccc(=C([O-])[O-])cc3)c3ccc([n-]3)C(c3ccc(C(=O)[O-])cc3)=C3C=CC2=N3)cc1.[67Cu+2].[H+].[H+].[H+].[H+] ... 0.97

Now turn to the next compound.
Give measured n (number of binding sites) for Oc1ccc(-c2c3nc(c(-c4ccc(O)cc4)c4ccc([nH]4)c(-c4ccc(O)cc4)c4nc(c(-c5ccc(O)cc5)c5ccc2[nH]5)C=C4)C=C3)cc1 (pancreatic lipase (PL) (Sus scrofa, UniProt P00591)). 1.33

* * *

ΔH^0 by entry:
Biological target: pancreatic lipase (PL) (Sus scrofa, UniProt P00591)
Construct: lipase (porcine pancreas); purchased Shanghai Yuanye Co., Ltd., Shanghai, China; host or cells: porcine pancreas
Sequence (P00591 1-450): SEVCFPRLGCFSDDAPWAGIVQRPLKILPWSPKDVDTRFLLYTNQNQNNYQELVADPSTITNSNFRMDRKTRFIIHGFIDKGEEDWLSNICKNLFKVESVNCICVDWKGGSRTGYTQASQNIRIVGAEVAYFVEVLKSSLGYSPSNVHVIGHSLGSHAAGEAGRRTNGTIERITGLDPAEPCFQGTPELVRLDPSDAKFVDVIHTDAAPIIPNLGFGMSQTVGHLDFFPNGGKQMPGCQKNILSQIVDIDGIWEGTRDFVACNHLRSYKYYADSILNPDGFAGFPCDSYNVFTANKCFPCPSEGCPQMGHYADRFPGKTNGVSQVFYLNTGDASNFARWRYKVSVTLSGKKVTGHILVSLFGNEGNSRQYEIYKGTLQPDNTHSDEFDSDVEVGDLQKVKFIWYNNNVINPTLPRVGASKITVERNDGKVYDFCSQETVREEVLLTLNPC
Assay: Fluorescence quenching and binding interaction with PL (Stern-Volmer, double logarithmic, Van't Hoff)
Design: species or system porcine
Details: Van't Hoff, 298-310 K
Give just the numeric value; kcal/mol need not be written.

Observe how each entry below is paired with its result.
Nc1ccc(-c2c3nc(c(-c4ccc(N)cc4)c4ccc([nH]4)c(-c4ccc(N)cc4)c4nc(c(-c5ccc(N)cc5)c5ccc2[nH]5)C=C4)C=C3)cc1 ... -17.28
Oc1ccc(-c2c3nc(c(-c4ccc(O)cc4)c4ccc([nH]4)c(-c4ccc(O)cc4)c4nc(c(-c5ccc(O)cc5)c5ccc2[nH]5)C=C4)C=C3)cc1 ... -30.946

Give measured ΔH^0 for O=C([O-])c1ccc(C2=C3C=CC(=N3)C(c3ccc(C(=O)[O-])cc3)=C3C=CC(=N3)C(=c3ccc(=C([O-])[O-])cc3)c3ccc([n-]3)C(c3ccc(C(=O)[O-])cc3)=C3C=CC2=N3)cc1.[67Cu+2].[H+].[H+].[H+].[H+] (pancreatic lipase (PL) (Sus scrofa, UniProt P00591)). 5.1

Give measured ΔH^0 for O=C(O)c1ccc(-c2c3nc(c(-c4ccc(C(=O)O)cc4)c4ccc([nH]4)c(-c4ccc(C(=O)O)cc4)c4nc(c(-c5ccc(C(=O)O)cc5)c5ccc2[nH]5)C=C4)C=C3)cc1 (pancreatic lipase (PL) (Sus scrofa, UniProt P00591)). -16.39
